- System: Candida tropicalis
- Measurement Protocol: Antifungal activity against Candida tropicalis 156 after 72 to 120 hrs by microdilution broth method
- Type: functional, organism-based
Activity calls are given as the source filed them. The calls are words filed in the database; no cut-off is given here.
Readout Type: Activity

- CCCCCCCCNc1cncc(C(N)=O)n1: inactive
- NC(=O)c1cnc(NCCc2ccccc2)cn1: inactive
- NC(=O)c1cnc(Cl)cn1: inactive
- NC(=O)c1cncc(Cl)n1: inactive
- CCCCCCNc1cnc(C(N)=O)cn1: inactive
- CCCCCNc1cncc(C(N)=O)n1: inactive
- CCCNc1cnc(C(N)=O)cn1: inactive
- CCCCCNc1cnc(C(N)=O)cn1: inactive
- CNc1cncc(C(N)=O)n1: inactive
- CCCCNc1cnc(C(N)=O)cn1: inactive
- NC(=O)c1cnc(NCCCc2ccccc2)cn1: inactive
- CCCCCCNc1cncc(C(N)=O)n1: inactive
- NC(=O)c1cncc(N)n1: inactive
- CCCNc1cncc(C(N)=O)n1: inactive
- CCCCCCCNc1cncc(C(N)=O)n1: inactive
- CCCCCCCCNc1cnc(C(N)=O)cn1: inactive
- NC(=O)c1cncc(NCCCc2ccccc2)n1: inactive
- CNc1cnc(C(N)=O)cn1: inactive
- CCNc1cncc(C(N)=O)n1: inactive
- NC(=O)c1cnc(N)cn1: inactive
- NC(=O)c1cncc(NCCc2ccccc2)n1: inactive
- CCNc1cnc(C(N)=O)cn1: inactive
- CCCCNc1cncc(C(N)=O)n1: inactive
- CCCCCCCNc1cnc(C(N)=O)cn1: inactive
